system: Proteinase-activated receptor 1 (Homo sapiens) (UniProt P25116)
Sequence (whole entry): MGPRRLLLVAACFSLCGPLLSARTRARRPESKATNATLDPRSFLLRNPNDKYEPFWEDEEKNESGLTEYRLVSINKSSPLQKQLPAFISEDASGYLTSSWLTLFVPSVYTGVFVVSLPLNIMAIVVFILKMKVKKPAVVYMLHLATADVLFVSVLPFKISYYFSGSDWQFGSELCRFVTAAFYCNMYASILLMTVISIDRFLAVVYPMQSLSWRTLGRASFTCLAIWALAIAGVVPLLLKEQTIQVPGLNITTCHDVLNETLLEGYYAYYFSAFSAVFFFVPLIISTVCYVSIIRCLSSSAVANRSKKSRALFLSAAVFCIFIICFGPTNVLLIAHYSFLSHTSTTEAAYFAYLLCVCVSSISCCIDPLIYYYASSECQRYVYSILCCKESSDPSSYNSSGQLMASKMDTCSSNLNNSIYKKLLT
test: Activation of PAR-1 in human platelet-rich plasma assessed as induction of platelet aggregation by turbidimetric method relative to S/Phe/FLLRNP
Type: cell-based
Numbered stars: 1 amine (or outer) side, 2 acyl side, 3 side chain; on linkers, the order of the positions; unused ones are H or OH. Square brackets hold non-standard residues; d marks the D form. Peptide text beside a SMILES is read from it. Phe(3,4,5-F3) = N[C@@H](Cc1cc(F)c(F)c(F)c1)C(=O)O; Phe(F5) = N[C@@H](Cc1c(F)c(F)c(F)c(F)c1F)C(=O)O; X1 = O=C([C@H](Cc1c(F)c(F)cc(F)c1F)N[*:1])[*:2]; X2 = O=C([C@H](Cc1c(F)cc(F)c(F)c1F)N[*:1])[*:2]; X3 = O=C([C@H](Cc1cc(F)c(F)c(F)c1F)N[*:1])[*:2]; Phe(3,5-F2) = N[C@@H](Cc1cc(F)cc(F)c1)C(=O)O; Phe(2,6-F2) = N[C@@H](Cc1c(F)cccc1F)C(=O)O; X6 = O=C([C@H](Cc1cc(F)ccc1F)N[*:1])[*:2]; Cha = N[C@@H](CC1CCCCC1)C(=O)O
measured endpoint: Activity (%)

Some solved entries appear below for comparison.
compound: CC(C)C[C@H](NC(=O)[C@H](CC(C)C)NC(=O)[C@H](CC1CCCCC1)NC(=O)[C@@H](N)CO)C(=O)N[C@@H](CCCNC(=N)N)C(=O)N[C@@H](CC(N)=O)C(=O)N1CCC[C@H]1C(N)=O (H-S[Cha]LLRNP-NH2)
Activity / %: 3

compound: CC(C)C[C@H](NC(=O)[C@H](CC(C)C)NC(=O)[C@H](Cc1c(F)c(F)cc(F)c1F)NC(=O)[C@@H](N)CO)C(=O)N[C@@H](CCCNC(=N)N)C(=O)N[C@@H](CC(N)=O)C(=O)N1CCC[C@H]1C(N)=O (H-S[X1]LLRNP-NH2)
Activity / %: 0

compound: CC(C)C[C@H](NC(=O)[C@H](Cc1cc(F)c(F)c(F)c1)NC(=O)[C@@H](N)CO)C(=O)N[C@@H](CC(C)C)C(=O)N[C@@H](CC(N)=O)C(=O)N1CCC[C@H]1C(N)=O (H-S[Phe(3,4,5-F3)]LLNP-NH2)
Activity / %: 16

compound: CC(C)C[C@H](NC(=O)[C@H](CC(C)C)NC(=O)[C@H](Cc1c(F)cc(F)c(F)c1F)NC(=O)[C@@H](N)CO)C(=O)N[C@@H](CCCNC(=N)N)C(=O)N[C@@H](CC(N)=O)C(=O)N1CCC[C@H]1C(N)=O (H-S[X2]LLRNP-NH2)
Activity / %: 34

compound: CC(C)C[C@H](NC(=O)[C@H](Cc1cc(F)cc(F)c1)NC(=O)[C@@H](N)CO)C(=O)N[C@@H](CC(C)C)C(=O)N[C@@H](CC(N)=O)C(=O)N1CCC[C@H]1C(N)=O (H-S[Phe(3,5-F2)]LLNP-NH2)
Activity / %: 11

(I) CC(C)C[C@H](NC(=O)[C@H](Cc1c(F)c(F)c(F)c(F)c1F)NC(=O)[C@@H](N)CO)C(=O)N[C@@H](CC(C)C)C(=O)N[C@@H](CC(N)=O)C(=O)N1CCC[C@H]1C(N)=O (H-S[Phe(F5)]LLNP-NH2)
(II) CC(C)C[C@H](NC(=O)[C@H](Cc1c(F)cccc1F)NC(=O)[C@@H](N)CO)C(=O)N[C@@H](CC(C)C)C(=O)N[C@@H](CC(N)=O)C(=O)N1CCC[C@H]1C(N)=O (H-S[Phe(2,6-F2)]LLNP-NH2)
(III) CC(C)C[C@H](NC(=O)[C@H](Cc1cc(F)ccc1F)NC(=O)[C@@H](N)CO)C(=O)N[C@@H](CC(C)C)C(=O)N[C@@H](CC(N)=O)C(=O)N1CCC[C@H]1C(N)=O (H-S[X6]LLNP-NH2)
(IV) CC(C)C[C@H](NC(=O)[C@H](Cc1cc(F)c(F)c(F)c1F)NC(=O)[C@@H](N)CO)C(=O)N[C@@H](CC(C)C)C(=O)N[C@@H](CC(N)=O)C(=O)N1CCC[C@H]1C(N)=O (H-S[X3]LLNP-NH2)
Hey, can you sort those compounds up there by Activity, smallest first? Returns: the labels listed in the requested order.
I, IV, II, III
(I: 0%, IV: 6%, II: 11%, III: 35%)
